Cited source for all entries: patent US20240002497A1

# system.tested: T1, huNav1.7α + β1-β2-β3 (human, UniProt Q15858 1-1988; A5A6L6 19-218; O60939 30-215; Q2KI11 23-215)
# T1 construct: also called huNav1.7-beta1-beta2-beta3; huNav1.7-β1-β2-β3
# experiment: binding FACS, CHO Flp-In, periplasmic extract
assay.metric: MFI (MFI)

{"binder": "F0103PMP500E03 (bispecific antibody, crude periplasmic extract; also called F103275B05(N93R)-50GS-F0103500E03 bivalent ISVD) EVQLVESGGGLVQPGGSLRLSCAASGSIFNINSMAWYRRAPGKQRELVASSTNGGSTNYADSVKGRFTISRDNAKRVYLQMNSLTPEDTAVYYCRALLQPSIYDISRTYWGQGTLVTVSSGGGGSGGGGSGGGGSGGGGSGGGGSGGGGSGGGGSGGGGSGGGGSGGGGSEVQLVESGGGLVQAGGSLRLSCAASGRTFSRYQMGWFRQAPGKEREFVAYISWSGSTRYVDSVKGRFTISRDNAKNTVYLQMNSLKPEDTAVYHCAAGTAGIISSRPETYDSWGQGTQVTVSSAAADYKDHDGDYKDHDIDYKDDDDKGAAHHHHHHKAA", "unit.string": "MFI", "measurement": 22400}
{"binder": "F0103PMP478E09 (bispecific antibody, Screened as crude periplasmic extract; also called F103275B05(N93R)-50GS-F0103478E09 bivalent ISVD) EVQLVESGGGLVQPGGSLRLSCAASGSIFNINSMAWYRRAPGKQRELVASSTNGGSTNYADSVKGRFTISRDNAKRVYLQMNSLTPEDTAVYYCRALLQPSIYDISRTYWGQGTLVTVSSGGGGSGGGGSGGGGSGGGGSGGGGSGGGGSGGGGSGGGGSGGGGSGGGGSEVQLVESGGGLVQAGGSLRLSCAASGRAFSTLAMGWFRQAPGKEREFVAAISRNGNNSATGDSLKGRFTISRDSTKSTVFLQMNTLKPEDTAVYYCAAISTPSASHPYVRKESYRYWGQGTQVTVSSAAADYKDHDGDYKDHDIDYKDDDDKGAAHHHHHHKAAGGGGG", "unit.string": "MFI", "measurement": 82800}
{"binder": "F0103PMP492E09 (bispecific antibody, crude periplasmic extract; also called F103275B05(N93R)-50GS-F0103492E09 bivalent ISVD) EVQLVESGGGLVQPGGSLRLSCAASGSIFNINSMAWYRRAPGKQRELVASSTNGGSTNYADSVKGRFTISRDNAKRVYLQMNSLTPEDTAVYYCRALLQPSIYDISRTYWGQGTLVTVSSGGGGSGGGGSGGGGSGGGGSGGGGSGGGGSGGGGSGGGGSGGGGSGGGGSEVQLVESGGGLVQAGGSLRLSCAASKSILSFAYMRWYRQAPGKQREFVASIAIGGATSYTDSVKGRFTISRDNAKNTVYLQMNSLKPEDTAVYYCSAPAGQYRGQGTLVTVSSAAADYKDHDGDYKDHDIDYKDDDDKGAAHHHHHHKAAGGGGG", "unit.string": "MFI", "measurement": 40200}
{"binder": "F0103PMP495F09 (bispecific antibody, crude periplasmic extract; also called F103275B05(N93R)-50GS-F0103495F09 bivalent ISVD) EVQLVESGGGLVQPGGSLRLSCAASGSIFNINSMAWYRRAPGKQRELVASSTNGGSTNYADSVKGRFTISRDNAKRVYLQMNSLTPEDTAVYYCRALLQPSIYDISRTYWGQGTLVTVSSGGGGSGGGGSGGGGSGGGGSGGGGSGGGGSGGGGSGGGGSGGGGSGGGGSEVQLVESGGGLVQAGSSLSLSCAASGRALSTYAMGWFRQAPGKEREFVARISRSGITTYYTDSVKGRFTISRDRAKDTVYLQMNSLKPEDTAIYLCAADASTNPAGYYLRNRYDYWGQGTLVTVSSAAADYKDHDGDYKDHDIDYKDDDDKGAAHHHHHHKAAGGGGG", "unit.string": "MFI", "measurement": 35600}
{"binder": "F0103PMP505D08 (bispecific antibody, crude periplasmic extract; also called F103275B05(N93R)-50GS-F0103505D08 bivalent ISVD) EVQLVESGGGLVQPGGSLRLSCAASGSIFNINSMAWYRRAPGKQRELVASSTNGGSTNYADSVKGRFTISRDNAKRVYLQMNSLTPEDTAVYYCRALLQPSIYDISRTYWGQGTLVTVSSGGGGSGGGGSGGGGSGGGGSGGGGSGGGGSGGGGSGGGGSGGGGSGGGGSEVQLVESGGGLVQAGGSLRLSCVTSGRTSDLSTMNWFRQAPGKEREFVARITRRGSTYYAESVKERFIISRDNAKNTVYLQMNSLKPEDTANYYCTAASEMGYHYRGQGTQVTVSSAAADYKDHDGDYKDHDIDYKDDDDKGAAHHHHHHKAAGGGGG", "unit.string": "MFI", "measurement": 106000}
